metric name: melting point

Please review the following examples before continuing.
>>> print(df.to_string())
                                   molecule          value
0  Cc1cc(C2(c3cccc(-c4cncnc4)c3)N=C(N)N(C)C2=O)ccc1O[C@H](C)c1ccccc1 (stereo partly shown)  112 to 114 °C
1  Cc1cc(C2(c3cccc(-c4cncnc4)c3)N=C(N)N(C)C2=O)ccc1OCCCOc1ccccc1 (stereo not shown)    72 to 74 °C

Inquiry: Give the measured melting point of Cc1cc(C2(c3cccc(-c4cncnc4)c3)N=C(N)N(C)C2=O)ccc1OC(C)C (stereo not shown) .
Reply text: 101 to 103 °C

Inquiry: Give the measured melting point of CN1C(=O)C(c2ccc(OC(F)F)cc2)(c2ccc(F)c(-c3cccnc3)c2)N=C1N (stereo not shown) .
Reply text: 104 to 106 °C
